assay: yeast display, Sf9 membrane polyspecificity reagent, FACS + sequencing; frameworks hold sequencing errors
Quantity Measured: polyreactivity (PSR sort gate)

Residue Sequence: QVQLVESGGGLVQAGGSLRLSCAASGLIFSWNAMGWYRQAPGKEWELVASISYSGGRTYYADSVKGRFTISRDNAKNTVYLQKNSLKPEDTAVYYCAADTNATTDPQMDYWGQGTQVTVSS
Experimental Result: low polyreactivity
//
Residue Sequence: QVQLVESGGGLVQAGGSLRLSCAASGRIFWHNAMGWYRQAPGKERELVAAITGGGSTYYADSVKGRFTISRDNAKNTVYLQMNSLKPEDTAVYYCATLGSLRYYWPGYDYWGQGTQGTVSS
Experimental Result: high polyreactivity
//
Residue Sequence: QDQLVESGGGLDQARGSLRLICAASGSTFKYYAMPSYRQAPGKERELVAAISWSGGNTYYADSVKGRFTISRENAKNTDYLQMNCLKPEDTAVYYCAADTKVGNGIKFDYWGQGTHVTVSS
Experimental Result: high polyreactivity
//
Residue Sequence: QVQLVESGGGLVQAGGSLRLSCAASGITFTVYAMGWYRQAPGKERELVAAITSTGSTNYADSVKGRSTISRDNAKNTVYLQMNSLKPEDTAVYYCAADRQITVYAYDYWGQGTQVTVSS
Experimental Result: low polyreactivity
//
Residue Sequence: QVQLVESGGGLVQAGGSHRLSCAASGLTLYQYTMGWYRQAPGKERELVAAITTSGSTYYADSVKGRFTISRDNEKNTVYLQMNSLKPEDTAVYYCAAVVYYVDTLSGYRYGYDYWGQCTQVTVSS
Experimental Result: low polyreactivity

###

test: yeast display, Sf9 membrane polyspecificity reagent, FACS + sequencing; frameworks hold sequencing errors
Quantity Measured: polyreactivity (PSR sort gate)

Residue Sequence: QVQLVESGGGLVQAGGSLRLSCAASGSIFAYNTMGWYRQAPGKERELVAAITGRAGSTYYADSVKGRFTISRDNAKNTVYLQMNSLKPEDTAVYYCNAPTWVRGGYDYWGQGTQVTVSS
Quantity Measured: polyreactivity (PSR sort gate)
Experimental Result: high polyreactivity
//
Residue Sequence: QVHLVESGGGLVQAGGSLRLSCAASGSTFYYYVMGWYRQAPGKETELVAAINSGGSTYYADSVKGRFTISRDNAKNTVYLQMNSLKPEDTAVYYCAKSWSYWYQYYYSGQGTQVTVSS
Quantity Measured: polyreactivity (PSR sort gate)
Experimental Result: low polyreactivity
//
Residue Sequence: QDQLVESGGGLVQAGGSLRLSCAASGFIFYFYAMVWYRQAPGKERELVAAISSGGSTNYADSVKGRFTISRDNAKNTVYLQMNSLKPEDTAVYYCNKGGYYKYFLNDYNYWGQGTQVTVSS
Quantity Measured: polyreactivity (PSR sort gate)
Experimental Result: low polyreactivity
//
Residue Sequence: QFQLVESGGGLLQAGGSLRLSCADSGFIFCEYAMGWYRQAPGKERELVAAITWSGGRTYYADSVKGRFTISRDNAKNTVYLQMNSLKTEDTAVYYCSAYGSFWYAGFGYWGQGTQVTVSS
Quantity Measured: polyreactivity (PSR sort gate)
Experimental Result: low polyreactivity
//
Residue Sequence: QVQLVESGGGLVQAGGSLRISCADSASIFWGYAMGWYREAPGKERELVATIRNRGGSTYYADSVKGRFTISRDNAKYTVYLQMNSLKPEDTAVYYCAAVSYRQYYGWGNYWGQVTQVTVSS
Quantity Measured: polyreactivity (PSR sort gate)
Experimental Result: low polyreactivity
//
Residue Sequence: QVQLVESGGGLVQAGGSLRLSCAASGYTFDYNAMGSYRQAPGKERELVADITGSGASTSYADSVKGRFTISRDYAKNTVYLQMNSLKPEDTAVYYCNADDSYFYELYGYWGQGTQVTVSS
Quantity Measured: polyreactivity (PSR sort gate)
Experimental Result: low polyreactivity
//
Residue Sequence: QVQHEESRRGLVQAGVSLRLRCAASGYTFRVYLMGCYRQAPGKERELVAAITYSGGRTYYADSVKGRFTISRDNAKNTVYLQMNSLKPVDTAVYYCAAERPWYGRDRGFDYWGQGTQVTVSS
Quantity Measured: polyreactivity (PSR sort gate)
Experimental Result: high polyreactivity
//
Residue Sequence: QVQLVESGGGLVQEGGSLRLSCAASGSTFTYNDMGRYRQAPGKERELVAAITDSDGITYYADSVKGRFTISRDNAKNTVYLQMHSLKPEDTAVSYCAAYYYGSVAQDREYWGQGTQVTVSS
Quantity Measured: polyreactivity (PSR sort gate)
Experimental Result: high polyreactivity
//
Residue Sequence: QVQLVESGGGLVQAGGSLRLSCAASGLIFLWYAMGWYRQAPGKERELVAAIRSSGDSTYYADSVKGRFTISRDNAKNTVYLQMNSLKPEDTAVYYCNRRKTNSRYDYWGQGTQVTVSS
Quantity Measured: polyreactivity (PSR sort gate)
Experimental Result: low polyreactivity
//
Residue Sequence: QVQLVESGGGLVQAGGSLRLSCAASGIIFYEYVMGWYRPAPGKERELVAAINRSGGSTYYADSVKGRFTISRDNAKNTVYLQMNSLKPEDTAVYYCAASSTYDGRKYYYWGQGTQVNVSS
Quantity Measured: polyreactivity (PSR sort gate)
Experimental Result: high polyreactivity
//
Residue Sequence: QVQLVESGGCLVQPGGSLRLSCAASGRTSVRNAMGWYRQAPGKERELVAAISNGGRTNYADSVKGRFTISRGNAKNTVYLQMNSLKPQDTAVYYCAARGFWLYYHGGVRSGYDYWGQGTQVTVSS
Quantity Measured: polyreactivity (PSR sort gate)
Experimental Result: high polyreactivity

###

assay: yeast display, Sf9 membrane polyspecificity reagent, FACS + sequencing; frameworks hold sequencing errors
Quantity Measured: polyreactivity (PSR sort gate)

Residue Sequence: QVQLVESGGGLVQAGGSLRLSCAASGSIFRRYAMGWYRQAPGKERELVATITSSVCRTYYADSVKARFTISRDTAKNTVYLQMNSLKPEETAVYFCAVYVGLWGAGGKGDYWGQGTQVTVSS
Experimental Result: low polyreactivity

Residue Sequence: QVQLVESGGGLVQAGGSLRLSCAASGRTFRYYAMGWYRQAPGKERELVARISWRGDSTRYADSVKGRFTISRDNAKNTVYVQMNSLKPEDTAVYYCAADTRFLVGPDKYGYWGQGTQVTESS
Experimental Result: high polyreactivity

Residue Sequence: QVQLVESGGGLVQAGGSLRLSCAASGRIFYSYAMGWYREAPGKERELVARITRGSSTYYADSVKGRFTISRDNAKNTVYLQMNSLKPEDTAVYYCAKSRYTALTNHWSHDYWGQGTQVTVSS
Experimental Result: low polyreactivity

Residue Sequence: QVQLVESGGGLVQAGGSLRLSCAASGSTFVPNAMGWYRQAPGKERELVATINYADSVKGRFTISRDNAKNTVYLQMNSLKPEDTAVYYCATETAVYLVWGTALDYWGQGTQVTVSS
Experimental Result: low polyreactivity

Residue Sequence: QVQLVESGGGLVQEGGSLRLSCAASGRTIIQNGMGWYRQAPGKERELVAAISYRGGTTSYADSVKGRFTISRDNAKNTVYLQMNSLKPEDTAVYSCAAVGHTIYATPTYYYWGQGTQVTVSS
Experimental Result: high polyreactivity

###

experiment: yeast display, Sf9 membrane polyspecificity reagent, FACS + sequencing; frameworks hold sequencing errors

Residue Sequence: QVQLVESGGGLVQAGGSLRLSCAASGSTIFIYAMGWYRQAPGKERELVAAISGSGGTTYYADSVKGRFTISRDNAKITVYLQMNSLKPEDTAVYYCATDITLWYAYSHEGLYIGYYWGQGTQVSVSS
polyreactivity (PSR sort gate): low polyreactivity
//
Residue Sequence: QVQLVESGGGLVQAGGSLRLSCAASGFTVSYYVMGWYRQAPGKERELVAGISWSGVSTYYADSVKGRFTISRDNAKNTVYLQMNSLKPEDTAVYYCAAGYDFSFFVPVRYTEYDYWGQGTQVTVSS
polyreactivity (PSR sort gate): high polyreactivity
//
Residue Sequence: QVQLVESGGGLVQAGGSLRLSCAASGYTFAGNAMGWYRQAPGKERELVAVITYSGGSTYYADSVKGRFTISRDNAKNTVYSQMNSLKPEDTAVYYCNAVRDRYASDYWGQGTQVTVSS
polyreactivity (PSR sort gate): low polyreactivity
//
Residue Sequence: QVQLVESGRALVQAGGSLRLSCAASGSTSRIYALGWYRQAPWKERELVAALTRSGGSTYYADSVKGRFTISRDNAKNTVYLQMNSLKPEDTAVYYCAADYRSHSRYRYDKVDYWGQGTQVTVSS
polyreactivity (PSR sort gate): high polyreactivity
//
Residue Sequence: QVQLVESGGGLVHAGGSLRLSCAASGSTFRLYSMGWYRQAPGKERELVAAISSNGVRTYYADSVKGRFTISRDNAKNTVYLQMNSLKPEDTAVYYCAARVYPAYPRGYDYWGQGTQVTVSS
polyreactivity (PSR sort gate): high polyreactivity

###

experiment: yeast display, Sf9 membrane polyspecificity reagent, FACS + sequencing; frameworks hold sequencing errors

Residue Sequence: QFQRVESGGGLVQAGGSLRLSSAASASIFSVYTMGWSRQAPGKERELDAAISTGGGSKYYADSVKGRFTISRDNAKNTVYLQMKSLKPEDTSVYYCGTDYGWPPSYWYDSFGQGTQVTVSS
polyreactivity (PSR sort gate): low polyreactivity
//
Residue Sequence: QDQLVESGGGLLQAGGSLRLSCAASGRTFRYYAMGWYRQAPGKERELVAAISWSGSSTYYADSVKGRFTISRDNAKNTVYLQMNSLKAEDTAVYDCNAKGVRGKYFDYSRVSAYDYWGQGTQVTVSS
polyreactivity (PSR sort gate): low polyreactivity
